Tested on: KCL-22
CONDITION_DETAILS: 72 h
ASSAY_ENDPOINT: IC50 (cell viability)

- COMPOUND: "CCCCC/C=C\\C/C=C\\C/C=C\\C/C=C\\CCCC(=O)C(F)(F)F [Arachidonyl trifluoromethyl ketone]"
  IC50 (cell viability): "> 10 µM"
- COMPOUND: "COc1ccc2c(c1)c(CC(=O)O)c(C)n2C(=O)c1ccc(Cl)cc1 [Indomethacine]"
  IC50 (cell viability): "> 10 µM"
- COMPOUND: "CCCCCCCNC=O [N-Heptyl-Formamide]"
  IC50 (cell viability): "> 10 µM"
- COMPOUND: "Cc1[nH]n(-c2ccccc2)c(=O)c1C1(C(F)(F)F)C(=O)N(c2ccccc2)C2=C1C(=O)CC(C)(C)C2 (stereo unspecified)"
  IC50 (cell viability): "> 10 µM"
- COMPOUND: "OCCN1C[C@H](O)[C@@H](O)[C@H](O)[C@H]1CO [Miglitol]"
  IC50 (cell viability): "> 10 µM"

Moving on to the next compound.
In: Under KCL-22, report IC50 (cell viability) for CC(C)(O)CNc1nc(Nc2ccnc(C(F)(F)F)c2)nc(-c2cccc(C(F)(F)F)n2)n1 [Enasidenib]
Out: > 10 µM
